All values here come from ChEMBL document CHEMBL4382250.

- Assay target: C-X-C chemokine receptor type 4 (Homo sapiens)
- Assay text: Displacement of [125I]-CXCL12 from human CXCR4 receptor expressed in HEK293T cell membranes at 100 uM after 2 hrs by scintillation counting analysis relative to IT1t
Measure name: inhibition (%)

1) Cc1cccc(CNCC2CCN(Cc3ccccc3Cl)CC2)c1
63
2) COc1ccc(CNCC2CCN(Cc3ccccc3Cl)CC2)cc1
88
3) CCc1cccc(CNCC2CCN(Cc3ccccc3OC)CC2)c1
81
4) Clc1ccccc1CN1CCC(CNCC2CCCCC2)CC1
77

[1] Clc1ccc(CNCC2CCN(Cc3ccccc3Cl)CC2)cc1
[2] NCCC1CCN(Cc2ccccc2Cl)CC1
// max by inhibition over [ 1 , 2 ] Record your answer as the label of the chosen record.
1

[P] Clc1ccccc1CN1CCC(CNCc2ccc3c(c2)OCO3)CC1
[Q] Clc1ccccc1CN1CCC(CNCc2cccc(Cl)c2Cl)CC1
// returns P or Q , whichever has the lower inhibition # answer = label of selected item
Q
(Q: 13%, P: 72%)

----------
- Assay target: C-X-C chemokine receptor type 4 (Homo sapiens)
- Assay text: Displacement of [125I]-CXCL12 from human CXCR4 receptor expressed in HEK293T cell membranes after 2 hrs by scintillation counting analysis
Measure name: IC50 (nM)

1) Cc1cccc(CNCC2CCN(Cc3cccc(Cl)c3)CC2)c1
2510
2) CCc1cccc(CNCC2CCN(Cc3ccccc3OC)CC2)c1
794
3) Cc1cccc(CNCC2CCN(Cc3cccc(Cl)c3Cl)CC2)c1
794
4) Cc1cccc(CNCC2CCN(Cc3ccc(Cl)cc3)CC2)c1
10000
5) Cc1ccccc1CNCC1CCN(Cc2ccccc2Cl)CC1
251
6) Clc1cccc(CNCC2CCN(Cc3ccccc3Cl)CC2)c1
316
7) Clc1ccccc1CNCC1CCN(Cc2ccccc2Cl)CC1
200

[A] Cc1cccc(CNCC2CCN(Cc3c(Cl)cccc3Cl)CC2)c1
[B] COc1ccccc1CN1CCC(CNCc2cccc(C)c2)CC1
When their IC50 values are compared, which is larger, A or B ? Give the label under which the chosen entry appears.
B
(B: 794 nM, A: 251 nM)

----------
- Assay target: C-X-C chemokine receptor type 4 (Homo sapiens, UniProt P61073)
- Sequence (P61073 whole entry): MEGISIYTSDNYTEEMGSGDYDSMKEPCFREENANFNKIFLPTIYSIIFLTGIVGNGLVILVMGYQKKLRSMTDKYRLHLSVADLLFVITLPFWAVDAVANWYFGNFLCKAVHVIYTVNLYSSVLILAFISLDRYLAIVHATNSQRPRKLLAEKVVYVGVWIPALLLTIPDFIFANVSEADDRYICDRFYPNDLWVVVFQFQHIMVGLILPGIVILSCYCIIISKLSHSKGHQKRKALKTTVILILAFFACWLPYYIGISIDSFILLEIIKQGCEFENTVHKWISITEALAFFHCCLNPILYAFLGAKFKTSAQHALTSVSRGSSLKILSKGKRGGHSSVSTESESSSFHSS
- Assay text: Displacement of [125I]-CXCL12 from human CXCR4 receptor expressed in HEK293T cell membranes at 63 uM after 2 hrs by scintillation counting analysis relative to IT1t
Measure name: inhibition (%)

1) CN(C)CCCNCc1ccc(Cl)c(Cl)c1
70
2) NCC1CCN(Cc2ccccc2Cl)CC1
69

----------
- Assay target: C-X-C chemokine receptor type 4 (Homo sapiens, UniProt P61073)
- Assay text: Displacement of [125I]-CXCL12 from human CXCR4 receptor expressed in HEK293T cell membranes after 2 hrs by scintillation counting analysis
Measure name: IC50 (nM)

1. Clc1ccccc1CN1CCC(CNCc2cccc(-c3ccccc3)c2)CC1
501

[1] Clc1ccccc1CN1CCC(CNCc2ccc3ccccc3c2)CC1
[2] Clc1ccccc1CN1CCC(CNCc2cccnc2)CC1
// which entry has the larger IC50 value, 1 or 2 ? Reply with the label of the item you choose.
2
(2: 2000 nM, 1: 501 nM)

----------
- Assay target: UniProt P61073
- Assay text: Displacement of [125I]-CXCL12 from human CXCR4 receptor expressed in HEK293T cell membranes at 100 uM after 2 hrs by scintillation counting analysis relative to IT1t
Measure name: inhibition (%)

1) c1ccc(CNCC2CCN(Cc3ccccc3)CC2)cc1
72
2) Cc1cccc(CNCC2CCN(Cc3cccc(Cl)c3Cl)CC2)c1
74
3) Oc1ccc(CN2CCC(CNCc3ccccc3)CC2)cc1
65
4) COc1ccccc1CN1CCC(CNCc2ccccc2)CC1
85
5) NCC1CCN(CC2CCCCC2)CC1
59
6) Clc1ccccc1CN1CCC(CNCc2cccc(-c3ccccc3)c2)CC1
98
7) NCC1CCN(Cc2ccc(Cl)c(Cl)c2)CC1
67
8) Cc1ccccc1CN1CCC(CN)CC1
81
9) Cc1cccc(CNCC2CCN(Cc3c(Cl)cccc3Cl)CC2)c1
60
10) Clc1ccccc1CN1CCC(CNCc2ccccc2)CC1
87
11) Clc1ccccc1CN1CCC(CNCc2cccnc2)CC1
89
12) Clc1ccccc1CNCC1CCN(Cc2ccccc2Cl)CC1
80
13) COc1ccccc1CN1CCC(CN)CC1
67
14) Oc1ccc(CNCC2CCN(Cc3ccccc3Cl)CC2)cc1
98
15) Cc1cccc(CNCC2CCN(Cc3cccc(Cl)c3)CC2)c1
86
16) Cc1ccccc1CNCC1CCN(Cc2ccccc2Cl)CC1
72
17) Clc1ccccc1CN1CCC(CNCc2ccc3ccccc3c2)CC1
78
18) COc1ccccc1CN1CCC(CNCc2cccc(C)c2)CC1
84

----------
- Assay target: C-X-C chemokine receptor type 4 (Homo sapiens, UniProt P61073)
- Assay text: Displacement of [125I]-CXCL12 from human CXCR4 receptor expressed in HEK293T cell membranes after 2 hrs by scintillation counting analysis
Measure name: IC50

What value of IC50 has been recorded for this entry: NCC1CCN(Cc2ccc(Cl)c(Cl)c2)CC1
> 10 µM

Give the measured IC50 of CN(C)CCCNCc1ccc(Cl)c(Cl)c1 .
> 10 µM

Sample NCC1CCN(CC2CCCCC2)CC1 — what was its IC50?
> 10 µM
